These entries and their values trace back to paper PMC9352680.

Provide the reported pKd of each item.
STUDY TARGET: T1, PUF4 RNA-binding domain (Saccharomyces cerevisiae, UniProt P25339 537-888)
T1 sequence: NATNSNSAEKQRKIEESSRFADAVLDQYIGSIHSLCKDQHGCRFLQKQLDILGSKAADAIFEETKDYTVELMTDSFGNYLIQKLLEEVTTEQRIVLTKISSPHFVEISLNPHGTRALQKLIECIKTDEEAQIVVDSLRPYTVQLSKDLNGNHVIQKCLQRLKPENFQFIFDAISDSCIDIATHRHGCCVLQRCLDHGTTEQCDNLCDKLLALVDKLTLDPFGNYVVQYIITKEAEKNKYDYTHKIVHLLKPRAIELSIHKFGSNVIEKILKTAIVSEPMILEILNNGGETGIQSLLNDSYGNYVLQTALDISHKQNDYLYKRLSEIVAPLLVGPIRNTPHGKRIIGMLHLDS
MEASUREMENT DESCRIPTION: Mg; RNA-MaP; 20 mM Na-HEPES pH 7.4, 30 mM KOAc, 0.75 mM MgCl2, 0.1% Tween-20, 5% glycerol, 0.1 mg/mL BSA, 2 mM DTT; 25 C; 0.0125-409.6 nM protein
SETUP CONDITIONS: tags: N-His6-TEV cleaved; C-SNAP kept, Cy3B-labelled; label: tethered on chip by stalled RNA polymerase
Lab note — pKd values are minus log10 of concentrations in M.

According to the records, this binder UCUCUUUGUGUAUAUAAUUCUCUU (ssRNA) [Id_ii_S1_P3E.2_K3.1_C3.2_[C-2T]_[T-1G]_H3.1_A3.1_F3.1_T3.2_[T9A]_[A10T]] displays pKd of 8.02

According to the records, this binder Ic_S2_P5E.1_K5.1_C5.1_H5.1_A5.1_[T5G]_[T6C]_F5.1_[T8C]_[A10G]_T5.1 (ssRNA) RNA: UUUGAUUAAUAUGAUAUCGUUCUUUCUUGUAGCACUGUUCUUUCUCGAUAUCAUAUUAAUCUUU displays pKd of 6.10

According to the records, this binder Id_i_S2_P3E.7_K3.3_C3.3_[T-3A]_[C-2T]_[T-1G]_H3.3_A3.1_F3.1_T3.2 (ssRNA) RNA: UUUGAUUAAUAUGAUAUCGUUCUUUCUAUGACACUAUAUAUUCUUUCUCGAUAUCAUAUUAAUCUUU displays pKd of 6.22
